Target: human-mouse chimeric molecule DR-IE (human; mouse)
Assay: cell-based or functional assay
readout-name: IC50, inhibition of IL-2 secretion of T-Hyb 1 cells

binder	measured-value
MS-GPC-8-10-57 (IgG4 form) (antibody, V domains shown, Human IgG4 (constant region EMBL K01316), lambda constant region (EMBL M18645), from CHO-K1 cells; also called 1C7277) VH: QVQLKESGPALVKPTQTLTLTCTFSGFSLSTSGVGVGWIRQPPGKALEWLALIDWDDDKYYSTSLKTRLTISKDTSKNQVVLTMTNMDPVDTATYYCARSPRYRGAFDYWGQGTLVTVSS VL: DIVLTQPPSVSGAPGQRVTISCSGSESNIGNNYVQWYQQLPGTAPKLLIYDNNQRPSGVPDRFSGSKSGTSASLAITGLQSEDEADYYCQSYDLIRHVFGGGTKLTVLG	0.31 nM
MS-GPC-8-10-57 (Fab form) (Fab, V domains shown, Fab: VH-CH1-FLAG-STREP tag II; also called 1C7277) VH: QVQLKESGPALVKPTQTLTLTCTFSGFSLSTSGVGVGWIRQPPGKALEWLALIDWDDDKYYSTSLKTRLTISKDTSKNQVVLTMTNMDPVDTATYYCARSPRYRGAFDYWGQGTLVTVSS VL: DIVLTQPPSVSGAPGQRVTISCSGSESNIGNNYVQWYQQLPGTAPKLLIYDNNQRPSGVPDRFSGSKSGTSASLAITGLQSEDEADYYCQSYDLIRHVFGGGTKLTVLG	2.9 nM ((Fab)/2)
MS-GPC-8-6 (Fab form) (Fab, V domains shown, Fab: VH-CH1-FLAG-STREP tag II) VH: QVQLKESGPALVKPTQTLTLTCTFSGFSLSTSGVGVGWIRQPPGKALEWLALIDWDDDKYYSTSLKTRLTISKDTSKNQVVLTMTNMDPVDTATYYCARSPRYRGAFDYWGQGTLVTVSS VL: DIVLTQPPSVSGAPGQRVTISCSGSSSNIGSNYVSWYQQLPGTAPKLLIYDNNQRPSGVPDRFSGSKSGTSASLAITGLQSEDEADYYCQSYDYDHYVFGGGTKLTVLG	20 nM ((Fab)/2)
MS-GPC-8-6 (IgG form) (antibody, V domains shown) VH: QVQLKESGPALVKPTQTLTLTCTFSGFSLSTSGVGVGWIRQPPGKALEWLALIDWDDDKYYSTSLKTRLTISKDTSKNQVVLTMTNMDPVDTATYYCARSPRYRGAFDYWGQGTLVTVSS VL: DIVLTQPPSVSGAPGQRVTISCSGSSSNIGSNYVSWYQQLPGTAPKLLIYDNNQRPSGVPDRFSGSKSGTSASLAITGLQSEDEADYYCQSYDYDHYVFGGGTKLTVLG	6.7 nM

Origin of values: patent US20090325290A1
